test system: SF-268 CNS; experiment: NCI tumour cell line growth inhibition, 48 h
Documented TGI across a set of molecules
measuredParameter: TGI

| molecule | experimentalResult |
| --- | --- |
| C=C1CC/C=C(\C)CCC[C@H](C)[C@@H](O)[C@@H]2OC(=O)C(=C)[C@@H]2C[C@H]1O | 23.1 µM |
| O=S(=O)(Nc1ccc(Cl)cc1Cl)c1ccc(-c2cnc(C3CC3)o2)cc1 | 72.9 µM |
| COC1=C(Br)[C@H](O)[C@@]2(C=C1Br)CC(C(=O)NCCCOc1c(Br)cc(C(O)CNC(C)=O)cc1Br)=NO2 (some centres undefined) | > 10 µM |
| COc1ccc(C(O)(CCC(C)C)C(CN2CCOCC2)c2ccc(Cl)cc2)cc1 (centres undefined) | 29.3 µM |
| CC(C)OC(=O)[C@H](C)NP(=O)(OC[C@H]1O[C@@H](n2ccc(=O)[nH]c2=O)[C@](C)(F)[C@@H]1O)Oc1ccccc1 (some centres undefined) | > 100 µM |
| COC(=O)C1=C(C(=O)OC)C2=S(SC3=C2CCCC3)S1 (centres undefined) | > 100 µM |
| CC1(C)N=C(N)N=C(N)N1c1ccc(CCCCc2ccc(Cl)c(S(=O)(=O)F)c2)c(Cl)c1 | 15.9 µM |
| CCOC(=O)c1nc2cc(F)c(N3CCOCC3)cc2[nH]c1=O | > 100 µM |
| C=COC(=O)N[C@H]1CCc2cc(OC)c(OC)c(OC)c2-c2ccc(SC)c(=O)cc21 | 44.9 µM |

* * *

Documented TGI across a set of compounds
test system: LOX IMVI melanoma; test: NCI tumour cell line growth inhibition, 48 h
measuredParameter: TGI (µM)

| compound | measuredParameter | op | experimentalResult |
| --- | --- | --- | --- |
| CC1CN=C(N(C(=O)Nc2ccccc2)c2ccc(Cl)c(Cl)c2)S1 (stereo not given) | TGI | = | 93.3 |
| CCOC(=O)NNC(=O)NCCCCNC(=O)NNC(=O)OCC | TGI | > | 100 |
| CC(C)[Si]1(C(C)C)OCC2OC3(CO)C(Oc4nc(=O)ccn43)C2O[Si](C(C)C)(C(C)C)O1 (stereo not given) | TGI | = | 28.7 |
| COc1ccc2c(C(=O)c3cn(CCN4CCOCC4)c4ccccc34)cccc2c1 | TGI | > | 100 |
| Cn1cnnc1Sc1c([N+](=O)[O-])ncn1C | TGI | > | 100 |
| COC12OCCN(C)C1=CC(=O)C1=NNC(C)C12 (stereo not given) | TGI | > | 100 |
| CC(=O)N(C)CCc1c[nH]c2ccccc12 | TGI | > | 100 |
| CCCCCCCN=C(N)c1ccc(N2CCN(c3ccc(C(N)=NCCCCCCC)cc3)CC2)cc1 | TGI | = | 19.1 |
| C[C@H]1CN[C@@H]2[C@@H](C)[C@H]3[C@@H](C[C@H]4[C@@H]5CC[C@H]6C[C@@H](N)CC[C@]6(C)[C@H]5CC[C@]34C)O[C@@]2(O)C1 | TGI | = | 4.08 |
| Cn1c2ccccc2c(=O)c2cccc(C(=O)NC(CS)C(=O)O)c21 (stereo not given) | TGI | > | 100 |
| CC1(C)CC(=O)CC(=Nc2ccc([N+](=O)[O-])cc2)C1 | TGI | = | 38.8 |
| O=C(/C=C/C=C/c1ccccc1)c1ccccc1 | TGI | = | 29.3 |
| CN(C)CCCn1cnc2cc(Cl)c(Cl)cc21 | TGI | > | 100 |
| Nc1ccccc1N=Cc1cc2cc([N+](=O)[O-])ccc2s1 | TGI | = | 97.9 |
| CCN(Cc1ccc(F)cc1)c1ccc(CO)c(Br)c1 | TGI | = | 26.1 |
| COc1cccc(C2CC23C(=O)NC(=O)NC3=O)c1 (stereo not given) | TGI | > | 100 |
| COc1ccc(/C(Cl)=C(\C=O)c2ccc(OC)cc2)cc1 | TGI | > | 100 |
| COCOC1C=CCCCC2=CC(C)=C(CC1)O2 (stereo not given) | TGI | > | 100 |
| C[N+](C)(C)CC1CCC/C1=N\OC(=O)c1ccccc1 (stereo not given) | TGI | > | 100 |
| Cn1c2ccccc2c2ncc3[nH]c4ccccc4c3c21 | TGI | = | 56.2 |
| COc1ccc(-c2nc3ncccn3c2-c2ccc(SC)cc2)cc1 | TGI | = | 80.4 |
| [N-]=[N+]=CC(=O)OC1Cc2ccccc2C1 | TGI | > | 100 |
| CN(C)c1ncnc2c1ncn2CCn1cnc2c(N(C)C)ncnc21 | TGI | > | 100 |
| COC(=O)c1nsc(OC)c1Cl | TGI | > | 100 |
| Cc1cccc2c1Sc1ccccc1C2NC(=O)CCN(C)C (stereo not given) | TGI | > | 100 |

* * *

Documented TGI across a set of compounds
system: OVCAR-8 ovarian; assay: NCI tumour cell line growth inhibition, 48 h
Where a SMILES comes first, the peptide text is derived from it. The star is where a group is joined. Boc = CC(C)(C)OC(=O)*

| compound | TGI |
| --- | --- |
| O=C(Nc1ccc([N+](=O)[O-])cc1[N+](=O)[O-])C(=O)C(C(=O)c1ccc2ccccc2c1)C1OC(=O)c2ccccc21 (stereo unspecified) | 21.6 µM |
| CCCOC(=O)CNC(=O)OC(C)(C)C | > 100 µM |
| C(=C\c1ccc(-c2cn3cc(/C=C/C=N/NC4=NCCN4)ccc3n2)cc1)/C=N/NC1=NCCN1 | 2.67 µM |
| S=c1[nH]c2c(Cl)c(Cl)c(Cl)c(Cl)c2[nH]1 | 57.4 µM |
| CC(=O)N(C)CCc1c[nH]c2ccccc12 | > 100 µM |
| CS/C(=C(\S)c1ccccc1)c1ccccc1 | > 100 µM |
| Cc1ccc(NC(=O)CCc2nnc(N)o2)cc1 | > 100 µM |
| c1ccc2c(c1)SCCC2NC1=NCCO1 (stereo unspecified) | > 100 µM |
| CSc1ccsc1-c1sc(-c2cc(SC)c(-c3sc(-c4cc(SC)c(-c5sccc5SC)s4)cc3SC)s2)cc1SC | > 100 µM |
| Cn1c2c(c3ccccc31)CCN1C(=O)CN(C(=O)C3CCCCC3)CC21 (stereo unspecified) | > 100 µM |
| CCOC1c2cc(C(C)C)c(O)c(O)c2[C@@]23CCCC(C)(C)C2C1OC3=O (stereo partly specified) | > 100 µM |
| Cc1cc(N(CCCNc2ccnc3cc(Cl)ccc23)Cc2ccc3c(c2)OCO3)nc(N2CCOCC2)n1 | 25.6 µM |
| COc1ccc(OC)c(/C=C(/C#N)c2ccccc2)c1 | > 100 µM |
| CCOC(=O)c1sc2c(c1OC(=O)c1ccc(OC)cc1)c(=O)n(-c1ccccc1)c(=S)n2-c1ccccc1 | > 100 µM |
| O=C1c2ccccc2C(=O)c2c1nc1ccccc1c2-c1cncc(-c2c3c(nc4ccccc24)C(=O)c2ccccc2C3=O)c1 | 27.1 µM |
| CCCCCCCN=C(N)c1ccc(N2CCN(c3ccc(C(N)=NCCCCCCC)cc3)CC2)cc1 | 7.34 µM |
| O=C1CCC/C=C\C[C@H]2C=CC(=O)/C2=C/C[C@H](C/C=C\CC(F)(F)F)O1 | 1.34 µM |
| CC(Oc1ccc(Cl)cc1Cl)C(=O)NN1C(=O)CSC1c1ccccc1 (stereo unspecified) | > 100 µM |
| NCC(=O)Nc1ccc(S(=O)(=O)O)c2cc(S(=O)(=O)O)cc(S(=O)(=O)O)c12 | > 100 µM |
| [N-]=[N+]=CC(=O)OC1Cc2ccccc2C1 | > 100 µM |
| COc1ccc(/C=C2\c3cc(OC)c(OC)cc3CCN2C(=O)c2ccccc2)cc1OC | > 100 µM |
| COC(=O)C(C)NC(=O)C(CCSC)NC(=O)C(Cc1ccccc1)NC(=O)OC(C)(C)C (stereo not drawn) (Boc-Phe-Met-Ala-OMe; configuration not given here) | > 100 µM |
| Cc1ccc(Cl)c2c(=O)c3ccc(N)cc3sc12 | 52.6 µM |
| Clc1nc(Cl)nc(Nc2cccc3ccccc23)n1 | > 100 µM |
| O=C(/C=C/C=C/c1ccccc1)c1ccccc1 | 26.1 µM |
| Cc1ncc([N+](=O)[O-])n1CCNCCCCn1ccnc1[N+](=O)[O-] | > 100 µM |
| COc1ccc(C(C#N)NNC(=O)Cc2ccccc2)cc1OC (stereo unspecified) | > 100 µM |
| O=[P@@]1(c2ccccc2)O[C@H](COCc2ccccc2)[C@@H](OCc2ccccc2)[C@H](OCc2ccccc2)[C@H]1NCc1ccccc1 | > 100 µM |
| CN(C)CCC(=O)C(=Cc1ccc(O)cc1)C(=O)CCN(C)C | > 100 µM |
| C=C(C)C1CCC2(C)CC1c1c(c(C)cc3c1[nH]c1ccccc13)O2 (stereo unspecified) | > 25 µM |
| Cn1cnnc1Sc1c([N+](=O)[O-])ncn1C | > 100 µM |
| CC(=O)OCC1OC(n2c(C)cc(C)c(C#N)c2=S)C(OC(C)=O)C(OC(C)=O)C1OC(C)=O (stereo unspecified) | > 100 µM |
| COC(=O)C1=CN(CC2=CC(=O)C(C)=CC2=O)C=C(C(=O)OC)C1c1cccc(OC)c1 | > 100 µM |
| CC(C)C(C/C=C1\CC(CO)(COC(=O)C(C)(C)C)OC1=O)C(C)C (stereo unspecified) | 31.1 µM |
| CC(C)(C)[Si](C)(C)OC1C(=O)C[C@H]2CCCC[C@@H]12 (stereo partly specified) | > 100 µM |
| C[Si](C)(C)/C(Br)=C\CCN1C(=O)CCC1=O | > 100 µM |
| FC(F)(F)c1ccc2c(c1)nc(-c1ccc(Cl)cc1)n2CC1CCCN2CCCCC12 (stereo unspecified) | 30.1 µM |
| C=COC(=O)N[C@H]1CCc2cc(OC)c(OC)c(OC)c2-c2ccc(SC)c(=O)cc21 | > 80.7 µM |
| CCOC(=O)/C=C/c1ccc(C#Cc2ccccc2)cc1 | > 100 µM |
| CCOC(=O)/C=C(\C(=O)OCC)n1ccc(=O)n(Cc2cn(CCCCOC(C)=O)nn2)c1=O | 20.1 µM |
| CC1(C)OC2C(O)C(CO)OC2(C(F)F)O1 (stereo unspecified) | > 100 µM |
